# targetSystem: recombinant human Cyp19 enzyme (aromatase) (Homo sapiens)
# Construct: purchased Becton Dickinson Biosciences, San Jose, Calif., USA
# Sequence (P11511 1-503): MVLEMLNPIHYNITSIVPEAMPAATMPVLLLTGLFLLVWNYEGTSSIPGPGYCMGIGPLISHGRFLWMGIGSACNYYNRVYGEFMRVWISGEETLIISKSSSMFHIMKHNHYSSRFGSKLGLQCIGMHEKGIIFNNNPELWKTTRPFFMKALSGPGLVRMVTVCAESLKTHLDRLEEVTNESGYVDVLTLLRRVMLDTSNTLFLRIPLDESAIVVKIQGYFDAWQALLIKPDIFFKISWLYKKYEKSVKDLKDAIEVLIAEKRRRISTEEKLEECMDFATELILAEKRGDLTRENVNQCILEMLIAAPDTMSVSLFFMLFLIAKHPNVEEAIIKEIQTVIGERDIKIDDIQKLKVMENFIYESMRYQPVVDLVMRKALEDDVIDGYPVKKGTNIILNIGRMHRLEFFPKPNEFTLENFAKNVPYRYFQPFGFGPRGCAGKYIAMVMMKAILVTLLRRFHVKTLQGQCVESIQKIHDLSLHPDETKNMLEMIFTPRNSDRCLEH
# assayInfo: Cyp19/MFC high throughput aromatase inhibition kit
# Type: biochemical
# particulars: average of several measurements, read-out: IC50 value (aromatase inhibition)
Each record here notes measured IC50.
// units = nM; emit number, no label

[[record]]
compound = "N#Cc1ccc2c(c1)COC21CCCn2cncc21 (centres unmarked) [Example 1]"
value = 64.6


Which IC50 value belongs to N#Cc1ccc2c(c1)C1(CCCn3cncc31)OC2 (centres unmarked) [Example 4] ? 406

The values you see were collected from patent US8324235B2.
